- tested.target: human group 1B PLA2 (hps PLA2) (Homo sapiens, UniProt P04054)
- Construct: made in house; host or cells: E. coli
- Sequence (P04054 23-148): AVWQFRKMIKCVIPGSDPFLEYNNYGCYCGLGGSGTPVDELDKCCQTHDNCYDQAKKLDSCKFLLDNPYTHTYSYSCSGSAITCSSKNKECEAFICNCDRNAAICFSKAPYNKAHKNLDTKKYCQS
- assay.protocol: Fluorimetric PPyrPM assay for group 1B PLA2 inhibition (Example 12)
- Format: biochemical
- condition.set: human pancreas secreted PLA2; read-out: ILYPSA IC50 hps PLA2
- Protocol: In this example, a fluorimetric assay procedure was used to evaluate the indole and indole-related compounds of the invention as inhibitors of group 1B phospholipase A2 (PLA2) from human, mouse and porcine. […] In general, this assay used a phosphatidylmethanol substrate with a pyrene fluorophore on the terminal end of the sn-2 fatty acyl chain. […] The effect of a given inhibitor and inhibitor concentration on human, mouse and porcine phospholipase was determined. […]
quantity: pIC50
The scale used: pIC50 is minus the common logarithm of the concentration in molar units.

Reference set, count: 3
molecule	tested.target	pIC50
Cc1c(C(=O)C(N)=O)c2c(OC(C(=O)O)C(C)C)cccc2n1CCCCCCCCCCCCOc1ccccc1OCCCCCCCCCCCCn1c(C)c(C(=O)C(N)=O)c2c(OC(C(=O)O)C(C)C)cccc21 (stereo not shown)	human group 1B PLA2 (hps PLA2) (Homo sapiens, UniProt P04054)	6.66
COc1cccc(Cn2c(C)c(C(=O)C(N)=O)c3c(OCC(=O)O)cccc32)c1	human group 1B PLA2 (hps PLA2) (Homo sapiens, UniProt P04054)	5.49
Cc1c(C(=O)C(N)=O)c2c(OCC(=O)NS(C)(=O)=O)nccc2n1Cc1ccccc1	human group 1B PLA2 (hps PLA2) (Homo sapiens, UniProt P04054)	5.68

Here is another molecule to look at.
Query: Form: Entry = `Cc1c(CC(N)=O)c2c(OCC(=O)O)cccc2n1Cc1ccccc1` | System = human group 1B PLA2 (hps PLA2) (Homo sapiens, UniProt P04054) | pIC50 = ____
Result: 5.88

###

- tested.target: mouse group 1B PLA2 (mps PLA2) (Mus musculus, UniProt Q9Z0Y2)
- Construct: made in house; host or cells: E. coli
- Sequence (Q9Z0Y2 23-146): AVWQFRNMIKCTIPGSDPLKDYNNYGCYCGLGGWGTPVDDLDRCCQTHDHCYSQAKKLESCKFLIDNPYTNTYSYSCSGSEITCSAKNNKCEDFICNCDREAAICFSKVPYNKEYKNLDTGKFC
- assay.protocol: Fluorimetric PPyrPM assay for group 1B PLA2 inhibition (Example 12)
- Assay type: biochemical
- condition.set: mouse pancreas secreted PLA2; read-out: ILYPSA IC50 mps PLA2
quantity: IC50

compound	quantity	result
Cc1c(C(=O)C(N)=O)c2c(O)cccc2n1CCCCCCCCCCCCSCCCCCCCCCCCCn1c(C)c(C(=O)C(N)=O)c2c(O)cccc21	IC50	3.65 µM
Cc1c(C(=O)C(N)=O)c2c(OCC(=O)O)cccc2n1CCCCCCCCSCCCCSCCCCCCCCn1c(C)c(C(=O)C(N)=O)c2c(OCC(=O)O)cccc21	IC50	0.55 µM
Cc1c(C(=O)C(N)=O)c2c(OCC(=O)O)cccc2n1CCCCCCCCCCCCSSCCCCCCCCCCCCn1c(C)c(C(=O)C(N)=O)c2c(OCC(=O)O)cccc21	IC50	1 µM
Cc1c(C(=O)C(N)=O)c2c(OCC(=O)O)ccnc2n1Cc1ccccc1	IC50	2.14 µM
C=CCn1c(C)c(C(=O)C(N)=O)c2c(OCC(=O)O)cccc21	IC50	3.21 µM

Query: What value of measured IC50 is listed for Cc1c(C(=O)C(N)=O)c2c(OC(C(=O)O)C(C)C)cccc2n1Cc1ccccc1 (stereo not drawn) ?
Result: < 0.02 µM

###

- tested.target: porcine group 1B PLA2 (pps PLA2) (Sus scrofa)
- Construct: purchased
- Sequence (P00592 23-146): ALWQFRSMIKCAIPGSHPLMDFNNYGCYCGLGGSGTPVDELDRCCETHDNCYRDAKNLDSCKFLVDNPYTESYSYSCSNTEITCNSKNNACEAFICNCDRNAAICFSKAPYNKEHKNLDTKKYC
- assay.protocol: Fluorimetric PPyrPM assay for group 1B PLA2 inhibition (Example 12)
- Assay type: biochemical
- condition.set: porcine pancreas secreted PLA2; read-out: ILYPSA IC50 pps PLA2
- Experimental: In this example, a fluorimetric assay procedure was used to evaluate the indole and indole-related compounds of the invention as inhibitors of group 1B phospholipase A2 (PLA2) from human, mouse and porcine. […] In general, this assay used a phosphatidylmethanol substrate with a pyrene fluorophore on the terminal end of the sn-2 fatty acyl chain. […] The effect of a given inhibitor and inhibitor concentration on human, mouse and porcine phospholipase was determined. […]
Criterion: IC50 strictly less than 400 nM. Met: Criterion met. Not met: Criterion not met.

compound	assigned.label
Cc1c(C(=O)C(N)=O)c2c(OCC(=O)O)cccc2n1CCCCCCCCCCCCOc1ccccc1OCCCCCCCCCCCC(=O)O	Criterion not met
C=CCn1c(C)c(C(=O)C(N)=O)c2c(OCC(=O)O)cccc21	Criterion not met
Cc1c(C(=O)C(N)=O)c2c(OCC(=O)O)cccc2n1CCCCCCCCCCCCSCCCCCCCCSCCCCCCCCCCCCn1c(C)c(C(=O)C(N)=O)c2c(OCC(=O)O)cccc21	Criterion met

Query: Hello, is IC50 of the following compound strictly smaller than 400 nM? `Cc1c(C(=O)C(N)=O)c2c(OCC(=O)O)cccc2n1CCCCCCCCCCCCOc1ccc(C(C)(C)c2ccc(OCCCCCCCCCCCCn3c(C)c(C(=O)C(N)=O)c4c(OCC(=O)O)cccc43)cc2)cc1`
Result: Criterion met

Query: And then `Cc1c(C(=O)C(N)=O)c2c(OCC(=O)O)nccc2n1Cc1ccccc1-c1ccccc1` , what is it?
Result: Criterion met

Query: Another: `Cc1c(C(=O)C(N)=O)c2c(OCC(=O)O)c(Br)ccc2n1Cc1ccccc1`
Result: Criterion not met

Query: Next compound: `COc1cccc(Cn2c(C)c(C(=O)C(N)=O)c3c(OCC(=O)O)cccc32)c1`
Result: Criterion met

Query: Now try `Cc1c(C(=O)C(N)=O)c2c(OCC(=O)O)ccc(Br)c2n1Cc1ccccc1` .
Result: Criterion met
